List of protein stability index values.
B1: IQUB (parent)
chain: EADYEDDSKIAFLMQLQDIQYLTE

Variants of: B1
protocol_summary: protein stability index of a GFP-peptide fusion (GPS, HEK-293T) (PSI 1-6); higher = more stable;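 also: lentivirally expressed fusions sorted by FACS into six bins by GFP to DsRed ratio, PSI derived from sequencing read proportions per bin multiplied by bin number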
condition: c terminus: a fixed tail appended
measured_attribute: protein stability index

residue_change: Q20V
experimental_result: 2.19
//
residue_change: D18Y
experimental_result: 1.54
//
residue_change: D3N
experimental_result: 2.87
//
residue_change: D18V
experimental_result: 2.22
//
residue_change: S8I
experimental_result: 2.15
//
residue_change: L22E
experimental_result: 4.7
//
residue_change: A2M
experimental_result: 2.44
//
residue_change: K9H
experimental_result: 3.36
//
residue_change: Y21L
experimental_result: 3.44
//
residue_change: F12G
experimental_result: 4.66
//
residue_change: Q20R
experimental_result: 3.67
//
residue_change: F12H
experimental_result: 4.62
//
residue_change: M14G
experimental_result: 4.37
//
residue_change: L22K
experimental_result: 3.79
//
residue_change: D7I
experimental_result: 1.93
//
residue_change: Q17W
experimental_result: 2.02
//
residue_change: Q20K
experimental_result: 3.46
//
residue_change: A11F
experimental_result: 2.38
//
residue_change: A2W
experimental_result: 2.17
//
residue_change: L13H
experimental_result: 4.15
//
residue_change: S8A
experimental_result: 3.23
//
residue_change: Y21C
experimental_result: 3.74

Provenance of the data: the supplement of paper PMC10567573
